Tested on: Digitaria sanguinalis
Assay: Weed spectrum, greenhouse pot test
Assay type: in vivo
Conditions: Pre-emergence, 100 g ai/ha, two weeks after application
measurement label: efficacy (0-100 scale)

> print(dat)
                                   compound       measurement.label  data.value
1  COc1nc(C)nc(NC(=O)NS(=O)(=O)c2cscc2C2(CF)OCCO2)n1 [Example 2]  efficacy (0-100 scale)         100
2  COc1cc(OC)nc(NC(=O)NS(=O)(=O)c2ncccc2C(F)(F)F)n1 [Control chemical No. 2, Flazasulfuron, reference compound]  efficacy (0-100 scale)         100
3  CCOC(=O)c1cnn(C)c1S(=O)(=O)NC(=O)Nc1nc(OC)cc(OC)n1 [Control chemical No. 1, Pyrazosulfuron ethyl, reference compound]  efficacy (0-100 scale)          50
4  Cc1cc(C)nc(NC(=O)NS(=O)(=O)c2ccccc2C(O)C(C)F)n1 (stereo not shown) [Example 1]  efficacy (0-100 scale)         100
